# Drug metabolism per entry
assayed.system: Genome polyprotein (dengue virus type 2)
procedure.text: Prodrug activation assessed as Dengue virus serotype 2 NS2B-NS3 protease expressed in Escherichia coli BL21 lambda (DE3) cells-mediated compound hydrolysis in TRIS buffer at pH 9 at 500 uM incubated for 2 hrs by HPLC-UV analysis
reported.conditions: dengue virus type 2, pH 9, 2 h
Non-standard residues stand in square brackets, D forms with d. Residues, ends and D or L forms follow the SMILES beside them. ξ: configuration not given here. *: point of attachment. X1 = COc1ccc(/C=C\c2cc(OC)c(OC)c(OC)c2)cc1N*; 2Abz = Nc1ccccc1C(=O)O; ξNle = CCCCC(N)C(=O)O; Bz = O=C(c1ccccc1)*
Just the number in %, nothing appended.

CCCCC(NC(=O)c1ccccc1N)C(=O)N[C@@H](CCCCN)C(=O)N[C@@H](CCCNC(=N)N)C(=O)N[C@@H](CCCNC(=N)N)C(=O)N[C@@H](CO)C(=O)N[C@@H](Cc1ccc(O)cc1)C(N)=O (stereo partly drawn) (H-[2Abz][ξNle]KRRSY-NH2)    94

Recorded result, COc1ccc(/C=C\c2cc(OC)c(OC)c(OC)c2)cc1NC(=O)CNC(=O)CNC(=O)[C@H](CCCNC(=N)N)NC(=O)[C@H](CCCNC(=N)N)NC(=O)c1ccccc1 (Bz-RRGG-X1) , Drug metabolism: 42

Recorded result, `COc1ccc(/C=C\c2cc(OC)c(OC)c(OC)c2)cc1NC(=O)CCNC(=O)[C@H](CCCNC(=N)N)NC(=O)[C@H](CCCNC(=N)N)NC(=O)c1ccccc1` , Drug metabolism: 6.7

Recorded result, `COc1ccc(/C=C\c2cc(OC)c(OC)c(OC)c2)cc1NC(=O)CNC(=O)[C@H](CCCNC(=N)N)NC(=O)[C@H](CCCCN)NC(=O)c1ccccc1` , Drug metabolism: 32

Recorded result, `COc1ccc(/C=C\c2cc(OC)c(OC)c(OC)c2)cc1NC(=O)[C@H](C)NC(=O)[C@H](CCCNC(=N)N)NC(=O)[C@H](CCCNC(=N)N)NC(=O)c1ccccc1` , Drug metabolism: 36

Recorded result, `COc1ccc(/C=C\c2cc(OC)c(OC)c(OC)c2)cc1NC(=O)[C@H](C)NC(=O)[C@H](CCCNC(=N)N)NC(=O)[C@H](CCCCN)NC(=O)c1ccccc1` , Drug metabolism: 5.2

Recorded result, `COc1ccc(/C=C\c2cc(OC)c(OC)c(OC)c2)cc1NC(=O)CNC(=O)[C@H](CCCNC(=N)N)NC(=O)[C@H](CCCNC(=N)N)NC(=O)c1ccccc1` , Drug metabolism: 39

###

assayed.system: Genome polyprotein (dengue virus type 2, UniProt P29990)
procedure.text: Inhibition of Dengue virus serotype 2 NS2B-NS3 protease expressed in Escherichia coli BL21 lambda (DE3) cells preincubated with enzyme for 15 mins followed by 2-Abz-Nle-Lys-Arg-Arg-Ser-(3-NO2)-Tyr-NH2 FRET substrate addition measured for 15 mins by fluorescence analysis
value.kind: IC50 (µM)
Just the number in µM, nothing appended.

Recorded result, `COc1ccc(/C=C\c2cc(OC)c(OC)c(OC)c2)cc1NC(=O)[C@H](CO)NC(=O)[C@H](CCCNC(=N)N)NC(=O)[C@H](CCCNC(=N)N)NC(=O)c1ccccc1` , IC50: 25

###

# CC50 at 72 h per entry
procedure.text: Cytotoxicity against human HeLa cells assessed as reduction in cell viability measured after 72 hrs by cell titer blue assay
Format: cell-based
Residues, ends and D or L forms follow the SMILES beside them. *: point of attachment. X1 = COc1ccc(/C=C\c2cc(OC)c(OC)c(OC)c2)cc1N*; Bz = O=C(c1ccccc1)*
Just the number in nM, nothing appended.

COc1ccc(/C=C\c2cc(OC)c(OC)c(OC)c2)cc1NC(=O)CCNC(=O)[C@H](CCCNC(=N)N)NC(=O)[C@H](CCCNC(=N)N)NC(=O)c1ccccc1    952
COc1ccc(/C=C\c2cc(OC)c(OC)c(OC)c2)cc1NC(=O)[C@H](CO)NC(=O)[C@H](CCCNC(=N)N)NC(=O)[C@H](CCCCN)NC(=O)c1ccccc1    61.8

Recorded result, `COc1ccc(/C=C\c2cc(OC)c(OC)c(OC)c2)cc1NC(=O)CNC(=O)[C@H](CCCNC(=N)N)NC(=O)[C@H](CCCNC(=N)N)NC(=O)c1ccccc1` , CC50 at 72 h: 7.2

Recorded result, COc1ccc(/C=C\c2cc(OC)c(OC)c(OC)c2)cc1NC(=O)CNC(=O)CNC(=O)[C@H](CCCNC(=N)N)NC(=O)[C@H](CCCNC(=N)N)NC(=O)c1ccccc1 (Bz-RRGG-X1) , CC50 at 72 h: 19.5

Recorded result, `COc1ccc(/C=C\c2cc(OC)c(OC)c(OC)c2)cc1NC(=O)[C@H](C)N` , CC50 at 72 h: 6.69

Recorded result, `COc1ccc(/C=C\c2cc(OC)c(OC)c(OC)c2)cc1NC(=O)[C@H](C)NC(=O)[C@H](CCCNC(=N)N)NC(=O)[C@H](CCCNC(=N)N)NC(=O)c1ccccc1` , CC50 at 72 h: 65.7
